System: BTK;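 also: KINOMEscan kinase panel screen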
Test Context: concentration: 1 μM,replicates: in singlicate; n = 1
# %Inh values compiled below

CNC(=O)c1ccccc1Nc1nc(Nc2cccc(CS(C)(=O)=O)c2)ncc1C.O=CO :: 95.4%
CN1CCN(CCNc2nc3cc(Oc4ccc(NC(=O)Nc5cc(C(F)(F)F)ccc5F)cc4)ccc3[nH]2)CC1.Cl.Cl :: 0%
CC(=O)Nc1ccc(-c2cc3ncnc(SCC(=O)O)c3s2)cc1 :: 0%
C[C@@H]1CNc2c(sc3ccc4nc(-c5ccncc5)ccc4c23)C(=O)N1 :: 0%

Now, please, on to the next compound.
In: Recorded %Inh of `CN1CCN(CCCNc2nccc(-c3c(-c4ccc(F)cc4)nn4cc(C(N)=O)ccc34)n2)CC1` , please.
Out: 0%
